Molecular target: pERK1/2 (Thr202/Tyr204), NCI-1H441 (KRAS G12V) (Homo sapiens, UniProt P01116, G12V)
Construct: pERK1/2 HTRF read-out
Sequence (P01116 1-188 isoform P01116-2 G12V): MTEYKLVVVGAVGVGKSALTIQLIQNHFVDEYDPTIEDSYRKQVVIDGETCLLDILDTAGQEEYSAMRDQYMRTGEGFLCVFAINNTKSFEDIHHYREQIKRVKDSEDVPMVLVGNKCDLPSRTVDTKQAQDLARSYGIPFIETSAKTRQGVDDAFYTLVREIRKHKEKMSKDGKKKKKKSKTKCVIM
Assay: Assay of intracellular pERK1/2 (Thr202/Tyr204) phosphorylation in NCI-H441 cells (KRAS G12V)
Format: cell-based
Details: pERK1/2, 2 days, read-out: NCI-H441 (KRAS G12V) IC50
MEASURED METRIC: IC50 (nM)
Write the answer as a number in nM, unit excluded.

Some compounds with known IC50 results, for comparison:
# COMPOUND, SYSTEM NAME, IC50 (nM)
measured = [
    ("CC(c1cccnc1N)N1CCOc2nc(-c3cc(N)cc(Cl)c3C(F)(F)F)c(F)c3nc(OC[C@@H]4CCCN4C)nc1c23 (single isomer, unassigned) [Compound 99]", "pERK1/2 (Thr202/Tyr204), NCI-1H441 (KRAS G12V) (Homo sapiens, UniProt P01116, G12V)", 33),
    ("Cc1cc2[nH]ncc2c(-c2nc3c4c(nc(OC[C@@]56CCCN5C[C@H](F)C6)nc4c2F)N(C(C)c2cccnc2N)CCO3)c1C (some centres unmarked)", "pERK1/2 (Thr202/Tyr204), NCI-1H441 (KRAS G12V) (Homo sapiens, UniProt P01116, G12V)", 42),
    ("CC(c1cccnc1N)N1c2nc(OC[C@@]34CCCN3C[C@H](F)C4)nc3c(F)c(-c4cc(N)c(F)c(Cl)c4C(F)(F)F)nc(c23)OC[C@@H]1C (single isomer, unassigned) [Compound 269]", "pERK1/2 (Thr202/Tyr204), NCI-1H441 (KRAS G12V) (Homo sapiens, UniProt P01116, G12V)", 0.3),
    ("CC(c1cccnc1N)N1CCOc2nc(-c3cc(O)cc4ccc(F)c(F)c34)c(F)c3nc(OC[C@@H]4CCCN4C)nc1c23 (some centres unmarked) [Compound 6]", "pERK1/2 (Thr202/Tyr204), NCI-1H441 (KRAS G12V) (Homo sapiens, UniProt P01116, G12V)", 17),
    ("CC(c1cccnc1N)N1c2nc(OC[C@@H]3C[C@@H](F)CN3C)nc3c(F)c(-c4cc(N)c(F)c(Cl)c4C(F)(F)F)nc(c23)OC[C@@H]1C (some centres unmarked)", "pERK1/2 (Thr202/Tyr204), NCI-1H441 (KRAS G12V) (Homo sapiens, UniProt P01116, G12V)", 1),
]

Next up:
### Prompt Please supply the value of reported IC50 for the item Cc1cc(N)cc(-c2nc3c4c(nc(OC[C@H]5CCCN5C)nc4c2F)N(C(C)c2cccnc2N)CCO3)c1C(F)(F)F (single isomer, unassigned) [Compound 109]
### Response 2

----------
IC50 reference
Molecular target: pERK1/2 (Thr202/Tyr204), PANC-1 (KRAS G121D) (Homo sapiens, UniProt P01116, G12D)
Construct: pERK1/2 HTRF read-out
Sequence (P01116 1-188 isoform P01116-2 G12D): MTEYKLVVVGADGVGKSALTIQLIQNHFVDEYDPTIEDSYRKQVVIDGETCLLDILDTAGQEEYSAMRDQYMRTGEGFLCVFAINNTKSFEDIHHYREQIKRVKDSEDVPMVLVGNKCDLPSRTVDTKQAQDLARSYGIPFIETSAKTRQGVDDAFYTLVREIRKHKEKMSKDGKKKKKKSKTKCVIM
Experiment: Assay of intracellular pERK1/2 (Thr202/Tyr204) phosphorylation in PANC-1 cells (KRAS G12D)
Format: cell-based
Conditions: pERK1/2, 2 days, read-out: PANC-1 (KRAS G12D) IC50
From the text: Example 2: Assay of intracellular pERK1/2 (Thr202/Tyr204)phosphorylation 1. […] Fluorescence ratio=fluorescence value665 nm/fluorescence value615 nm Inhibition rate (%)=100−((fluorescence ratio of compound well−fluorescence ratio of negative control well)/(fluorescence ratio of positive control well−fluorescence ratio of negative control well))×100 […]
Write the answer as a number in nM, unit excluded.

# MOLECULE, IC50 / nM
rows = [
    ("[2H]C1([2H])CC[C@@]2(COc3nc4c5c(nc(-c6cc(N)c(F)c(C)c6C(F)(F)F)c(F)c5n3)OCCN4C(C)c3cccnc3N)C[C@@H](F)CN12 (some centres unmarked)", 1),
]

Next up:
### Prompt Please supply the value of reported IC50 for the item C#Cc1c(F)ccc2cc(O)cc(-c3nc4c5c(nc(OC[C@@]67CCCN6C[C@H](F)C7)nc5c3F)N(C(C)c3cccnc3N)[C@@H](C)CO4)c12 (single isomer, unassigned) [Compound 273]
### Response 0.4

----------
Target: pERK1/2 (Thr202/Tyr204), PANC-1 (KRAS G121D) (Homo sapiens, UniProt P01116, G12D)
Construct: pERK1/2 HTRF read-out
Test: Assay of intracellular pERK1/2 (Thr202/Tyr204) phosphorylation in PANC-1 cells (KRAS G12D)
Format: cell-based
Conditions: pERK1/2, 2 days, read-out: PANC-1 (KRAS G12D) IC50
MEASURED METRIC: IC50

# COMPOUND, SYSTEM NAME, IC50
data = [
    ("CC(c1cccnc1N)N1CCOc2nc(-c3cc(O)cc4ccc(F)c(F)c34)c(F)c3ncnc1c23 (single isomer, unassigned) [Compound 30]", "pERK1/2 (Thr202/Tyr204), PANC-1 (KRAS G121D) (Homo sapiens, UniProt P01116, G12D)", "> 1000 nM"),
    ("[2H]C1([2H])CC[C@@]2(C([2H])([2H])Oc3nc4c5c(nc(-c6cc(N)c(F)c(C)c6C(F)(F)F)c(F)c5n3)OCCN4C(C)c3cccnc3N)C[C@]([2H])(F)CN12 (single isomer, unassigned; diastereomer 2)", "pERK1/2 (Thr202/Tyr204), PANC-1 (KRAS G121D) (Homo sapiens, UniProt P01116, G12D)", "20 nM"),
    ("Cc1cc(N)cc(-c2nc3c4c(nc(OC[C@@]56CCCN5C[C@H](F)C6)nc4c2F)N([C@H](C)c2cccnc2N)CCCO3)c1C(F)(F)F (single isomer, unassigned)", "pERK1/2 (Thr202/Tyr204), PANC-1 (KRAS G121D) (Homo sapiens, UniProt P01116, G12D)", "> 100 nM"),
    ("[2H]C1([2H])CC[C@@]2(C([2H])([2H])Oc3nc4c5c(nc(-c6cc(N)cc(C)c6C(F)(F)F)c(F)c5n3)OCCN4C(C)c3cccnc3N)C[C@@H](F)CN12 (stereo partly shown) [Compound 105]", "pERK1/2 (Thr202/Tyr204), PANC-1 (KRAS G121D) (Homo sapiens, UniProt P01116, G12D)", "2 nM"),
    ("CC(c1cccnc1N)N1c2nc(OC[C@@]34CCCN3C[C@H](F)C4)nc3c(F)c(-c4cc(O)cc(Cl)c4C#N)nc(c23)OC[C@@H]1C (stereo partly shown)", "pERK1/2 (Thr202/Tyr204), PANC-1 (KRAS G121D) (Homo sapiens, UniProt P01116, G12D)", "> 100 nM"),
]

### Prompt Enter measured IC50, system pERK1/2 (Thr202/Tyr204), PANC-1 (KRAS G121D) (Homo sapiens, UniProt P01116, G12D), for the compound shown: CCN1CCC[C@H]1COc1nc2c3c(nc(-c4cc(N)cc(C)c4C(F)(F)F)c(F)c3n1)OCCN2C(C)c1cccnc1N (stereo partly shown)
### Response 19 nM

### Prompt Enter measured IC50, system pERK1/2 (Thr202/Tyr204), PANC-1 (KRAS G121D) (Homo sapiens, UniProt P01116, G12D), for the compound shown: Cc1c(F)c(N)cc(-c2nc3c4c(nc(OC[C@@]56CCCN5C[C@]5(CC5(F)F)C6)nc4c2F)N(C(C)c2cccnc2N)CCO3)c1C(F)(F)F (single isomer, unassigned; diastereomer 2)
### Response 2 nM

### Prompt Enter measured IC50, system pERK1/2 (Thr202/Tyr204), PANC-1 (KRAS G121D) (Homo sapiens, UniProt P01116, G12D), for the compound shown: CCC(c1cccnc1N)N1CCOc2nc(-c3cc(N)c(F)c(F)c3C(F)(F)F)c(F)c3nc(OC[C@@]45CCCN4C[C@H](F)C5)nc1c23 (single isomer, unassigned) [Compound 217]
### Response > 100 nM

### Prompt Enter measured IC50, system pERK1/2 (Thr202/Tyr204), PANC-1 (KRAS G121D) (Homo sapiens, UniProt P01116, G12D), for the compound shown: [2H][C@@]1(F)CN2CCC[C@@]2(COc2nc3c4c(nc(-c5cc(N)c(F)c(C)c5C(F)(F)F)c(F)c4n2)OCCN3C(C)c2cccnc2N)C1 (single isomer, unassigned)
### Response 17 nM

### Prompt Enter measured IC50, system pERK1/2 (Thr202/Tyr204), PANC-1 (KRAS G121D) (Homo sapiens, UniProt P01116, G12D), for the compound shown: CC(c1cccnc1N)N1CCOc2nc(-c3cc(O)cc4ccc(F)c(F)c34)c(F)c3nc(OC[C@@]45CCCN4C/C(=C\F)C5)nc1c23 (stereo partly shown)
### Response 4 nM

Provenance of the data: patent US20260356851A1
